molecular target: Voltage-gated potassium channel subunit beta-2 (Rattus norvegicus) (UniProt P62483); assay: KvBeta positive modulators, primary screen, biochemical, NADPH fluorescence (AID 623); details: Recombinant KvBeta, NADPH fluorescence decrease slope, 10 min; at 10 µM; stronger effect = lower value;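 note: fluorescence intensity change per second fitted from 20 to 320 s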
Sequence (P62483 whole entry, looked up): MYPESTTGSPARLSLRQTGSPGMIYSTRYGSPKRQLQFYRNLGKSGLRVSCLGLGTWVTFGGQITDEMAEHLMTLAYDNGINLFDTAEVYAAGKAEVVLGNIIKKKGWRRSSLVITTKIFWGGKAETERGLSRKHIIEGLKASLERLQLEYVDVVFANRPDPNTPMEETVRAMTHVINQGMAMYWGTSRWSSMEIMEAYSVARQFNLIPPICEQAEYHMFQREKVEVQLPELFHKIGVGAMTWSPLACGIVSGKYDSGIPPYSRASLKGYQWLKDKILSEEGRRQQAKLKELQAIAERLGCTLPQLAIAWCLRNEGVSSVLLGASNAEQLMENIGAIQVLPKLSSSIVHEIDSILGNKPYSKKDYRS
Please provide measured NADPH fluorescence slope for the entries that follow.
Please reply with the number alone, leaving off any unit.

Give the measured NADPH fluorescence slope of NC(=O)c1ccccc1NC(=O)CCCN1C(=O)CCC1=O .
-1.2e-05

Next record, please: CCOc1ccc(N(C(C)=O)C2C=CS(=O)(=O)C2)cc1 (stereo not given)
-1.8e-05

Next record, please: Cn1c(N2CCN(c3ccccn3)CC2)nc2c1c(=O)n(Cc1ccccc1Cl)c(=O)n2C
-0.000144

Next record, please: CCOCCCNC(=O)CN1CCN(Cc2ccccc2C)C1=O
-5.1e-05

Next record, please: Cc1ccccc1NC(=O)C1CCCN(S(=O)(=O)c2cnc[nH]2)C1 (stereo not given)
-2e-05

Next record, please: Cc1c(O)c(CN2CCCC2)cc2c1oc(=O)c1ccccc12
-2.9e-05

Next record, please: O=C(O)c1cc2cccc(S(=O)(=O)N3CCOCC3)c2cc1O
-1e-05

Next record, please: Cn1c(=N)c(S(=O)(=O)c2ccc(Cl)cc2)cc2c(=O)n3ccccc3nc21
-4.7e-05

Next record, please: O=C1c2ccccc2C(Nc2ccc(-c3nc4ccccc4[nH]3)cc2)N1Cc1ccco1 (stereo not given)
-2e-06

Next record, please: Cc1cc(NC(=O)Cc2cn3ccsc3n2)n(-c2ccccc2)n1
-1.7e-07

Next record, please: COC(=O)c1[nH]c(C)c(/C(O)=C2\C(=O)C(=O)N(CCN3CCOCC3)C2c2cccs2)c1C (stereo not given)
-2.8e-05

Next record, please: COC(=O)c1ccc(NC2(C#N)C(=O)Nc3ccccc32)cc1 (stereo not given)
-1.9e-05

Next record, please: O=c1c(-c2ccc(Br)cc2)coc2c(CN3CCOCC3)c(O)ccc12
3.3e-05

Next record, please: CCCOc1cccc(C(=O)Nc2cc(NC(=O)c3ccco3)ccc2OC)c1
-2.4e-05

Next record, please: COc1ccc(C2CC(c3cccs3)n3nc(N)nc3N2)cc1 (stereo not given)
-1.5e-05

Next record, please: O=C1c2ccccc2S(=O)(=O)N1Cc1nnc(-c2ccccc2Br)o1
-6e-05

Next record, please: CN(C)S(=O)(=O)Nc1ccc(Br)cc1F
-8.8e-06

Next record, please: O=C(CSc1nnc(CNC(=O)c2c(F)cccc2Cl)o1)c1ccccc1
-5.2e-05

Next record, please: CC(C)(C)C(=O)Cn1c[n+](N)cn1
-3.8e-05

Next record, please: CCCCCNC(=O)C(C#N)c1nc2ccccc2nc1N1CC(C)OC(C)C1 (stereo not given)
-8.1e-05

Next record, please: CCc1c(C)c2ccc(OCC(=O)OC)cc2oc1=O
-1.1e-05

Next record, please: O=C(c1cnc2n(c1=O)CCS2)N1CCc2ccccc21
4.8e-06

Next record, please: COc1ccc(-n2ncc3c(N4CCN(c5cccc(C)c5C)CC4)ncnc32)cc1
-3.6e-05

Next record, please: O=S(=O)(Nc1ccc2c(c1)OCO2)c1ccc(Br)s1
1.5e-05

Next record, please: Cc1cc(C)n(-c2ccc3cccc(NS(C)(=O)=O)c3n2)n1
-3.1e-05

Next record, please: O=C(Nc1ccc(N2C(=O)C3C4C=CC(C4)C3C2=O)cc1)Nc1nncs1 (stereo not given)
6.4e-08

Next record, please: CCCc1cc(NCCN2CCOCC2)n2c(nc3ccccc32)c1C#N
7.2e-06

Next record, please: COc1cc(N2CCCC2)c(OC)cc1/C=c1/sc2nc3ccccc3n2c1=O
-3.3e-05

Next record, please: CN1CCN(Cc2nc3c(c(=O)n(C)c(=O)n3C)n2Cc2ccccc2Cl)CC1
-2e-05

Next record, please: COc1ccccc1C(=O)n1nc(-c2ccc(Cl)cc2)nc1N
1.8e-05

Next record, please: CCN1CCN(C(=O)c2oc(=O)c3ccccc3c2-c2ccc(C)cc2)CC1
-4.9e-05

Next record, please: COC(=O)C(NC(=O)c1ccccc1)(Nc1nc(C)cs1)C(F)(F)F (stereo not given)
-3.9e-05

Next record, please: O=C(C1CCCCC1)N1CCCn2c1nc1ccccc12
-3.7e-05

Next record, please: CCOCCCNC(=O)C1CC(=O)N(C2CCCC2)C1 (stereo not given)
-1.6e-05

Next record, please: Cc1ccc(-n2ncc3c(NCc4ccc5c(c4)OCO5)ncnc32)c(C)c1
4.1e-06

Next record, please: COC(=O)C(O)(CC(=O)c1ccc(OC)cc1)C(F)(F)F (stereo not given)
-1.8e-05

Next record, please: COc1ccc(C2C(C(C)=O)=C(O)C(=O)N2c2nccs2)cc1OC (stereo not given)
-0.000231

Next record, please: N#Cc1nc(-c2ccc(F)cc2)oc1N1CCCC1
-9.4e-06

Next record, please: Nc1nc2n(n1)C(c1cccc(Br)c1)CC(c1ccc(F)cc1)N2 (stereo not given)
7.7e-06

Next record, please: CCCSc1nc2c(cnn2-c2ccc(Cl)cc2)c(=O)[nH]1
-1.8e-05

Next record, please: COC(=O)Sc1nc(N2CCOCC2)c2c(c1C#N)CC(C)(C)OC2
-0.000143

Next record, please: O=[n+]1c2c(n([O-])c3cc(F)c(N4CCCC4)cc31)CCC2
-5.8e-06

Next record, please: CSc1nc2sc3c(c2c2nncn12)CCC3
-9.7e-05

Next record, please: Cc1cc(NS(=O)(=O)c2ccc(NC(=O)COc3ccccc3C(C)C)cc2)no1
-3.3e-05

Next record, please: N#Cc1ccccc1NC(=O)CSc1nnc(-c2ccccc2)n1-c1ccccc1
-1.9e-05
